Molecular target: GST tagged LXRalpha LBD (ligand binding domain) (Homo sapiens, UniProt Q13133)
Construct: purchased Invitrogen pv4655
Sequence (Q13133 209-447 limits assumed): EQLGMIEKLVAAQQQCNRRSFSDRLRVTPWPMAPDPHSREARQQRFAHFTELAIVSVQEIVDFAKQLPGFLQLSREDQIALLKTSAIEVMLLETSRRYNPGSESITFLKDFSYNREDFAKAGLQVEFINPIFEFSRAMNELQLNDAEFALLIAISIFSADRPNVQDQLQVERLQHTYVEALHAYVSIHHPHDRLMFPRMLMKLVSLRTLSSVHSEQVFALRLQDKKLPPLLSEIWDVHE
Assay: LanthaScreen TR-FRET Liver X Receptor Coactivator Assay, LXR alpha-LBD (co-activator recruitment; IP and % Emax relative to T0901317)
Type: biochemical
Conditions: efficacy at max dose in relation to reference T0901317, LXR alpha-LBD; read-out: LXR alpha actiivty at max dose (%)
OUTCOME MEASURE: Emax (%)

Example molecules with recorded Emax:
molecule CC(C)NC(=O)c1ccc(N2CCC3(CC2)C[C@H]3CCN(C)C(=O)[C@](O)(c2ccccc2)C(F)(F)F)cc1Cl , Emax observed: 6

molecule COc1cccc([C@@]2(C(=O)N(C)CCCC3CCN(c4ccc(C(=O)N(C)C)c(Cl)n4)CC3)CCCO2)c1 , Emax observed: 11

molecule CN(C)C(=O)c1ccc(N2CCC(CCCNC(=O)[C@](O)(c3ccccc3)C(F)(F)F)CC2)nc1Cl , Emax observed: 28

molecule CCc1cccc([C@](O)(C(=O)N(C)CCCC2CCN(c3ccc(C(=O)N(C)C)c(Cl)n3)CC2)C(F)(F)F)c1 , Emax observed: 0

molecule COc1ccccc1[C@@]1(C(=O)N(C)CCCC2CCN(c3ccc(C(=O)N(C)C)c(Cl)n3)CC2)CCCO1 , Emax observed: 33

(a) CN(C)C(=O)c1ccc(N2CCC(CCCN(C)C(=O)[C@@](N)(c3ccccc3)C(F)(F)F)CC2)nc1Cl
(b) COc1cccc(C2(C(=O)N(C)CCCC3CCN(c4ccc(C(=O)N(C)C)c(Cl)n4)CC3)CCOCC2)c1
Request: Hey, between a and b which has a smaller measured Emax? Refer to your chosen entry by its label in the reply.
Response: b

###

Target: GST tagged LXRbeta LBD (ligand binding domain) (Homo sapiens, UniProt P55055)
Construct: purchased Invitrogen pv4658.pps
Sequence (P55055 222-460 limits assumed): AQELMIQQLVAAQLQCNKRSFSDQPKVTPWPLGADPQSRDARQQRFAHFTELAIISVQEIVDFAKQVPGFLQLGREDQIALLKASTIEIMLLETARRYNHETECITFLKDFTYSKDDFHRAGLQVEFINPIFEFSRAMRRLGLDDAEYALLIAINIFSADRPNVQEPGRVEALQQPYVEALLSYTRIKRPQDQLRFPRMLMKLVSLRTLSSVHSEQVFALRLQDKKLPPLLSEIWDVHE
Assay: LanthaScreen TR-FRET Liver X Receptor Coactivator Assay, LXR beta-LBD (co-activator recruitment; IP and % Emax relative to T0901317)
Assay type: biochemical
Details: efficacy at max dose in relation to reference T0901317, LXR beta-LBD; read-out: LXR beta actiivty at max dose (%)
OUTCOME MEASURE: Emax (%)

Per the reported GST tagged LXRbeta LBD (ligand binding domain) (Homo sapiens, UniProt P55055) data, CN(C)C(=O)c1ccc(N2CCC(CCCN(C)C(=O)[C@](O)(c3cccc(O)c3)C(F)(F)F)CC2)nc1Cl has Emax of 86

Per the reported GST tagged LXRbeta LBD (ligand binding domain) (Homo sapiens, UniProt P55055) data, CN(C)C(=O)c1ccc(N2CCC3(CC2)CC3CCN(C)C(=O)[C@](O)(c2ccccc2)C(F)(F)F)cc1Cl (stereo partly shown) has Emax of 73

Per the reported GST tagged LXRbeta LBD (ligand binding domain) (Homo sapiens, UniProt P55055) data, COc1cccc([C@@](O)(C(=O)N(C)CCCC2CCN(c3ccc(C(=O)N(C)CCO)c(Cl)n3)CC2)C(F)(F)F)c1 has Emax of 63

Per the reported GST tagged LXRbeta LBD (ligand binding domain) (Homo sapiens, UniProt P55055) data, CN(C)C(=O)c1ccc(N2CCC(CCCN(C)C(=O)[C@]3(c4ccccc4F)CCCO3)CC2)nc1Cl has Emax of 80

###

Biological target: GST tagged LXRalpha LBD (ligand binding domain) (Homo sapiens, UniProt Q13133)
Assay: LanthaScreen TR-FRET Liver X Receptor Coactivator Assay, LXR alpha-LBD (co-activator recruitment; IP and % Emax relative to T0901317)
Conditions: Inflection Point of co-activator recruitment, LXR alpha-LBD, TR-FRET
OUTCOME MEASURE: EC50 (nM)

(1) CN(C)C(=O)c1ccc(N2CCC(CCCNC(=O)[C@]3(c4ccccc4)CCCO3)CC2)nc1Cl
(2) CC(C)NC(=O)c1ccc(N2CCC3(CC2)C[C@@H]3CCN(C)C(=O)[C@](O)(c2ccccc2)C(F)(F)F)cc1Cl
(3) COc1cccc([C@@](O)(C(=O)N(C)CCCC2CCN(c3ccc(C(=O)N4CC(NC(=O)OC(C)(C)C)C4)c(Cl)n3)CC2)C(F)(F)F)c1
Request: Your job: order these 3 records by EC50, ascending. Present the labels in the sequence the task asks for.
Response: 3, 2, 1
